Experiment: NCI Yeast Anticancer Drug Screen. Data for the mec2-1 strain (AID 157)
Conditions: S. cerevisiae mec2-1 strain, at 50.0 µM (retest, dose inferred, filed as 5.0), stronger effect = higher value
The panel holds about 79,000 compounds, 15% with a hit somewhere; the sample as a whole holds those more often.
metric name: growth inhibition (%)

{"columns": ["compound", "value reported"],
 "data": [
  ["O=C(NC[N+]12CCO[B-]1(c1ccc(Br)cc1)OCC2)c1ccccc1O (stereo unspecified)", 43],
  ["O=C(CSc1nnc(Cc2ccccc2)o1)Nc1cccc(Cl)c1", 85],
  ["Nc1ccc(-c2nc3ccccc3s2)cc1", 100],
  ["CO/N=C/c1cc(NC(=S)c2ccoc2C)ccc1Cl", -17],
  ["O=C(NCCN1CCCC1)c1cn2c(ccc3sc4ccccc4c(=O)c32)n1", 71],
  ["C1=NC2c3ccccc3Cc3cccc1c32 (stereo unspecified)", 97],
  ["CN(C(=O)C(Cl)Cl)c1ccc(-c2csc(-c3ccccc3)n2)cc1", -1],
  ["O=[N+]([O-])c1ccc(Cl)c(C(Nc2nncs2)Nc2nncs2)c1", 70],
  ["CC(C)CCCC(C)C1CCC2C3C=CC4=CCCCC4(C)C3CCC12C (stereo unspecified)", 98],
  ["CCN(CC)CCNc1ccc2nnn3c4ccccc4c(=O)c1c23", 21],
  ["CCCCCN(CCCCC)CC(=O)OCC1(C)CCCC2(C)C3CCC(C(C)C)=CC3=CCC12 (stereo unspecified)", 54]
]}
